- Protocol notes: M. tuberculosis H37Rv growth inhibitors, H37Rv strain (AID 1626);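 also: bacteria incubated seven days before Alamar blue readout; 0% = bacteria only wells and 100% = bacteria with antibiotic wells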
- Condition label: active compounds read high, concentration not given here
The whole screen tested about 220,000 compounds, of which about 2,000 (0.91%) were called active. Another 2% or so got no clear call; they are omitted. Not all results are given here. Results with a measured potency or affinity are listed apart.
Given measured inhibition, output Condition met if it is greater than or equal to 10% and Condition not met if not.

>  <Compound>
CCOC(=O)c1sc2nc(Cc3ccc(Cl)cc3)[nH]c(=S)c2c1C

>  <Class>
Condition met

$$$$
>  <Compound>
Cc1ccc(C(=O)N/N=C/c2nc3ccccc3n2C)cc1

>  <Class>
Condition met

$$$$
>  <Compound>
Cc1ccc(-c2nc(C=Nc3cccc(C)c3)c(O)o2)cc1

>  <Class>
Condition not met

$$$$
>  <Compound>
CCOC(=O)COc1ccccc1/C=C\[N+](=O)[O-]

>  <Class>
Condition met

$$$$
>  <Compound>
CCOC(=O)c1sc2nc(C)n(N)c(=O)c2c1C

>  <Class>
Condition not met

$$$$
>  <Compound>
O=[N+]([O-])C(=c1ccc2c(c1)N1C3=C(CCCC3)CC3CCCCC31N=2)[N+](=O)[O-] (stereo unspecified)

>  <Class>
Condition not met

$$$$

---

- Protocol notes: M. tuberculosis H37Rv growth inhibitors, H37Rv strain (AID 1626);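 also: bacteria incubated seven days before Alamar blue readout; 0% = bacteria only wells and 100% = bacteria with antibiotic wells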
- Condition label: active compounds read high, concentration not given here
The campaign covered roughly 220,000 compounds. About 2,000 (0.91%) were called active. Roughly 2% stayed inconclusive and do not appear here. Only a sample is shown. Results with a measured potency or affinity are listed apart.

>  <Compound>
Cc1ccc2c(c1)c1c(n2CC(O)CNC(C)(C)C)CCCC1 (centres undefined)

>  <inhibition, %>
3.21

$$$$
>  <Compound>
O=C(Nc1ccc(-c2csc(Nc3ccccc3)n2)cc1)c1cccc(C(F)(F)F)c1

>  <inhibition, %>
14.9

$$$$
>  <Compound>
Cn1c(-c2ccccc2)cc(=O)c2ccccc21

>  <inhibition, %>
1.71

$$$$
>  <Compound>
Cc1c(C(=O)Nc2cccc(S(=O)(=O)N3CCCC3)c2)oc2ccccc12

>  <inhibition, %>
0.77

$$$$
>  <Compound>
CCN(CC)CCN(Cc1cc2ccc(C)c(C)c2[nH]c1=O)C(=S)NCc1ccco1

>  <inhibition, %>
-6.4

$$$$
>  <Compound>
Cc1ccc2nc(N3CCN(c4cccc(C)c4C)CC3)c3nnnn3c2c1

>  <inhibition, %>
-7.81

$$$$
>  <Compound>
Cc1ccc(C(C#N)c2ccc3c(C(F)(F)F)cc(C(F)(F)F)nc3n2)cc1 (centres undefined)

>  <inhibition, %>
12

$$$$
>  <Compound>
CN(Cc1ccccc1)S(=O)(=O)c1ccc(NC(=S)NC(=O)C(C)(C)C)cc1

>  <inhibition, %>
9.18

$$$$
>  <Compound>
Cc1ccc(SC[C@H](CC(C)C)N2CCN(CCc3ccccc3)CCC2=O)cc1

>  <inhibition, %>
16.3

$$$$
>  <Compound>
CN1CCN(c2ccc(F)cc2N)CC1

>  <inhibition, %>
0.4

$$$$
>  <Compound>
O=C(O)Cc1ccc(NC(=O)c2cnccn2)cc1

>  <inhibition, %>
2

$$$$
>  <Compound>
COc1ccc(S(=O)(=O)N(CC(=O)NCC2CCCO2)c2ccccc2)cc1OC (centres undefined)

>  <inhibition, %>
-6.11

$$$$
>  <Compound>
CCOC(=O)c1ccc(NC(=O)c2cnccn2)cc1

>  <inhibition, %>
38.2

$$$$
>  <Compound>
COc1ccc(/C=c2/sc3n(c2=O)C(c2ccccc2OC)C2=C(N=3)c3ccccc3CC2)cc1O (centres undefined)

>  <inhibition, %>
16.2

$$$$
>  <Compound>
Cc1cc(C)c(NC(=O)c2cn3c4c(c(N5CCN(C)CC5)c(F)cc4c2=O)OCC3C)c(C)c1 (centres undefined)

>  <inhibition, %>
9.11

$$$$
>  <Compound>
Cc1cnc(C(=O)Nc2ccc(C(C)C)cc2)cn1

>  <inhibition, %>
13.7

$$$$
>  <Compound>
CCN(C(=O)COC(=O)/C=C/c1ccc(S(=O)(=O)N2CCc3ccccc32)cc1)C1CCS(=O)(=O)C1 (centres undefined)

>  <inhibition, %>
-3.11

$$$$
>  <Compound>
COc1cc2c(cc1OC)C(C)N(C(C)=O)CC2 (centres undefined)

>  <inhibition, %>
-6.23

$$$$
>  <Compound>
Cc1ccc(-c2nc3ccccc3n3nnnc23)cc1

>  <inhibition, %>
4.17

$$$$
>  <Compound>
COc1cccc(-c2cc(C(=O)NCCN3CCOCC3)no2)c1

>  <inhibition, %>
0.49

$$$$
>  <Compound>
COc1cccc(C2C3=C(N=c4s/c(=C\c5ccc(O)cc5)c(=O)n42)c2ccccc2CC3)c1OC (centres undefined)

>  <inhibition, %>
6.52

$$$$
>  <Compound>
Cc1ccc(NCCC(=O)c2cccs2)cc1C

>  <inhibition, %>
74.8

$$$$
>  <Compound>
COc1ccc(-c2csc(NC(CO)c3nc4ccccc4n3CCCO)n2)cc1 (centres undefined)

>  <inhibition, %>
1.28

$$$$
>  <Compound>
O=C(NC1=NCCCCC1)c1cccc2ccccc12

>  <inhibition, %>
-1.94

$$$$
>  <Compound>
CCCOc1ccc(C(=O)CCNc2ccc(C)c(Cl)c2)cc1

>  <inhibition, %>
69.1

$$$$
>  <Compound>
COc1cccc(C2C3=C(N=c4s/c(=C\c5ccccc5O)c(=O)n42)c2ccccc2CC3)c1OC (centres undefined)

>  <inhibition, %>
5.15

$$$$
>  <Compound>
COc1ccc(NS(=O)(=O)c2ccc(Cl)c(NC(=O)c3cccnc3Cl)c2)cc1

>  <inhibition, %>
9.9

$$$$
>  <Compound>
O=C(O)c1cccc(CSc2ncn[nH]2)c1

>  <inhibition, %>
3.99

$$$$
>  <Compound>
CCOC(=O)C1=C(N)N(c2ccc(N3CCCCC3)cc2)C(=O)C1

>  <inhibition, %>
-16.5

$$$$
>  <Compound>
CS(=O)(=O)N(CC(=O)Nc1cccc(Cl)c1Cl)c1ccccc1

>  <inhibition, %>
-0.62

$$$$
>  <Compound>
Cc1ccc(NC(=O)COC(=O)CCC(=O)c2cccs2)cc1

>  <inhibition, %>
-6.9

$$$$
>  <Compound>
O=C1c2cc(O)cc(O)c2C(=O)c2c1cc(O)c([C@@H](CO)CCO)c2O

>  <inhibition, %>
-0.07

$$$$
>  <Compound>
CCc1ccc(NC(=O)C2CC=CCC2C(=O)O)cc1 (centres undefined)

>  <inhibition, %>
-2.56

$$$$
>  <Compound>
N#Cc1ccccc1Cn1cc(C(=O)c2cccs2)c2ccccc21

>  <inhibition, %>
7.78

$$$$
>  <Compound>
COc1ccc(C(=O)CNc2ccccc2C#N)cc1

>  <inhibition, %>
3.5

$$$$
>  <Compound>
CCn1c(/C=C/c2ccccc2)nc2ccccc2c1=O

>  <inhibition, %>
0.15

$$$$
>  <Compound>
O=C(Nc1cccc(-c2csc(Nc3cccc(C(F)(F)F)c3)n2)c1)c1cc([N+](=O)[O-])cc(C(F)(F)F)c1

>  <inhibition, %>
-8.7

$$$$
>  <Compound>
N#CC(c1ccccc1)c1ccc2c(C(F)(F)F)cc(C(F)(F)F)nc2n1 (centres undefined)

>  <inhibition, %>
-11.8

$$$$
>  <Compound>
Cc1ncoc1C(=O)N1CCc2c([nH]c3ccccc23)C1C1CCCCC1 (centres undefined)

>  <inhibition, %>
11.8

$$$$
>  <Compound>
CCOc1ccc(NC(=O)c2cnccn2)cc1

>  <inhibition, %>
7.63

$$$$
>  <Compound>
CCCCOC(=O)c1ccc(NC(=O)c2cnccn2)cc1

>  <inhibition, %>
79.1

$$$$
>  <Compound>
O=C(Nc1ccc(-c2csc(Nc3ccccc3)n2)cc1)c1cc([N+](=O)[O-])cc(C(F)(F)F)c1

>  <inhibition, %>
50.3

$$$$
>  <Compound>
CCOc1ccc(-n2c(C)nc3c(cnn3-c3ccc(Cl)cc3)c2=O)cc1

>  <inhibition, %>
-1.94

$$$$
>  <Compound>
[O-][n+]1onc2c3ccnnc3ccc21

>  <inhibition, %>
58.6

$$$$

---

- Protocol notes: M. tuberculosis H37Rv growth inhibitors, H37Rv strain (AID 1626);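 also: bacteria incubated seven days before Alamar blue readout; 0% = bacteria only wells and 100% = bacteria with antibiotic wells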
- Condition label: active compounds read high, concentration not given here
Among all 220,000 compounds or so, about 2,000 (0.91%) were called active. About 2% were inconclusive and are not listed. These entries were drawn from the full list. Measured potencies and affinities stand elsewhere.
Measured inhibition, listed per entry.

>  <Compound>
COc1ccc(C(=O)/C=C2\Sc3ccccc3N2C)cc1

>  <Unit name>
%

>  <inhibition>
-4.42

$$$$
>  <Compound>
O=C(Nc1ccc2c(c1)Cc1ccccc1-2)c1cc2ccccc2o1

>  <Unit name>
%

>  <inhibition>
34.9

$$$$
>  <Compound>
O=C(NC1CCCCC1)C(c1ccc2ncccc2c1)N(Cc1ccccc1)C(=O)c1cccs1 (stereo not given)

>  <Unit name>
%

>  <inhibition>
40.5

$$$$
>  <Compound>
O=C(CSc1nc2ccccc2o1)Nc1nc2ccccc2s1

>  <Unit name>
%

>  <inhibition>
-3.19

$$$$
>  <Compound>
COc1ccc(CN(C(=O)c2ccc3c(c2)OCCO3)C(C(=O)NC2CCCCC2)c2ccc3ncccc3c2)cc1 (stereo not given)

>  <Unit name>
%

>  <inhibition>
67.9

$$$$
>  <Compound>
COc1ccc(-n2c(Cc3cccs3)nnc2SCC(=O)Nc2ccc3c(c2)OCCO3)cc1

>  <Unit name>
%

>  <inhibition>
-1.02

$$$$
>  <Compound>
CCn1c(SCC(=O)N=Nc2c(O)[nH]c3ccccc23)nnc1-c1ccc(C(C)(C)C)cc1

>  <Unit name>
%

>  <inhibition>
-1.76

$$$$
>  <Compound>
COc1cc(OC)cc(C(=O)/C=C2\Sc3ccccc3N2C)c1

>  <Unit name>
%

>  <inhibition>
-9.58

$$$$
>  <Compound>
Cc1nnc(NC(=O)CSc2nc3ccccc3o2)s1

>  <Unit name>
%

>  <inhibition>
-1.02

$$$$
>  <Compound>
O=C(NC1CCCCC1)C(c1ccc2ncccc2c1)N(Cc1ccco1)C(=O)c1ccc2c(c1)OCCO2 (stereo not given)

>  <Unit name>
%

>  <inhibition>
13.5

$$$$
